Tested on: XIP peptide (Xip251-270)
assay_method_text: small-molecule binders of XIP peptide, primary screen, biochemical, small-molecule microarray, fluorescence 635/667 nm, 0.5 µg/mL protein (AID 1183)
condition_notes: small-molecule microarray binding, fluorescence 635 nm; higher = more signal
For each entry below, report its composite z-score value.
Answer field: number only, no words.

Recorded composite z-score (molecule CCOC(=O)[C@H](Cc1ccccc1)NC(=O)CCC1CC(OC(=O)NCc2cccc3ccccc23)CC2(CCCC(COC(=O)NCCc3ccccc3OC)O2)O1 (some centres undefined) ): 0.374

Recorded composite z-score (molecule Cc1ccc(S(=O)(=O)N[C@@H]2COC(=O)CC=C[C@@H](C)[C@H](NS(=O)(=O)c3ccc(C)cc3)COC(=O)[C@H](C)NC(=O)CC=C[C@H]2C)cc1 ): -0.564

Recorded composite z-score (molecule C#CCCCON=C1C[C@@H](O)[C@@H](O)[C@@H]2[C@@H]3C(=O)N(C[C@@H]4CCCO4)C(=O)[C@@H]3CC[C@@H]12 ): 0.384

Recorded composite z-score (molecule CC(C)[C@H](NC(=O)OC(C)(C)C)[C@@H](O)CC(=O)C(C)(C)C ): -0.19

---

assay_method_text: cell viability in Huh7 cells, primary screen, cytotoxicity control for HCV replication inhibitor project, CellTiter-Glo luminescence, basal, 48 h (AID 1143);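 further: Huh7 hepatoma cells carrying a hepatitis C replication reporter with no stimulus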
condition_notes: Huh7 HCV replicon, higher = more signal, called active from +8 up or from −8 down
If the reported z-score equals or exceeds 0.03, assign true. If not, assign false.

Say whether O=C1[C@H]2[C@H]3[C@H](O)[C@H](O)CC(=NOCc4ccccc4)[C@H]3CC[C@H]2C(=O)N1C1CCCCC1 shows z-score of 0.03 or more. false

Say whether CC(=O)OC[C@H]1O[C@H](CC=NOCC[C@@H]2C=C[C@H](OC(C)=O)[C@@H](COC(C)=O)O2)C=C[C@@H]1OC(C)=O shows z-score of 0.03 or more. true

Say whether COC(=O)[C@H](C)NC(=O)CCC1CC(OC(=O)NCc2ccc3c(c2)OCO3)CC2(CCCC(COC(=O)NCCc3ccc(Cl)cc3)O2)O1 (stereo partly drawn) shows z-score of 0.03 or more. true

Say whether O=C1[C@H]2[C@H]3[C@H](O)[C@H](O)CC(=NOCc4ccccc4)[C@@H]3CC[C@H]2C(=O)N1c1cccc(Oc2ccccc2)c1 shows z-score of 0.03 or more. false

Say whether CC(=O)OC[C@H]1O[C@H](C#CCC2CCCCC2)C=C[C@@H]1OC(C)=O shows z-score of 0.03 or more. false

Say whether O=C1CCCC=C1C(O)COCc1ccccc1 (stereo not drawn) shows z-score of 0.03 or more. true

Say whether Cc1cc2c(nc1C)CCCCN2CC(O)CN1CCCc2nc(-c3ccc(Br)cc3)ccc21 (stereo not drawn) shows z-score of 0.03 or more. true

---

assay_method_text: small-molecule microarray binders of probe aNog, primary screen, biochemical, biotinylated probe, 635/667 nm fluorescence (AID 1115);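 further: probe is biotinylated aNog protein used at 0.15 µg/mL for 1 h at 4 C; z-score combines 667 nm fluorescence of each spot with its signal to noise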
condition_notes: higher = more signal
If the reported composite z-score equals or exceeds -0.04, assign Criterion met. If not, assign Criterion not met.

Say whether COC(=O)[C@H](C)NC(=O)CCC1CC(OC(=O)NCc2ccc3c(c2)OCO3)CC2(CCCC(COC(=O)NCCc3ccc(Cl)cc3)O2)O1 (some centres not stated) shows composite z-score of -0.04 or more. Criterion not met

Say whether CCOC(=O)NN=C1C[C@@H](O)[C@@H](O)[C@@H]2[C@@H]3C(=O)N(CC)C(=O)[C@@H]3CC[C@H]12 shows composite z-score of -0.04 or more. Criterion not met

Say whether COc1ccc(O[C@H]2C=C[C@@H](C#Cc3ccccc3)O[C@@H]2CO)cc1 shows composite z-score of -0.04 or more. Criterion not met

Say whether CC(=O)OC[C@H]1O[C@H](C#CCC2CCCCC2)C=C[C@@H]1OC(C)=O shows composite z-score of -0.04 or more. Criterion met

Say whether COC(=O)[C@@H]1CC[C@H](C)[C@@H](c2ccc(C)cc2)N1C(=O)c1ccc(C=NOC[C@H]2O[C@H](c3ccccc3)C=C[C@@H]2Oc2ccc(OC)cc2)cc1 shows composite z-score of -0.04 or more. Criterion met

Say whether COc1ccc(O[C@H]2C=C[C@@H](c3ccccc3)O[C@@H]2CO)cc1 shows composite z-score of -0.04 or more. Criterion met

Say whether CCOC(=O)[C@H](Cc1ccccc1)NC(=O)CCC1CC(OC(=O)NCCc2ccc(F)cc2)CC2(CCCC(COC(=O)NCc3cccc(C(F)(F)F)c3)O2)O1 (some centres not stated) shows composite z-score of -0.04 or more. Criterion met
